Biological target: T1, canine OX40L, full length membrane form, expressed on HEK293 cells (canine)
T1 chain: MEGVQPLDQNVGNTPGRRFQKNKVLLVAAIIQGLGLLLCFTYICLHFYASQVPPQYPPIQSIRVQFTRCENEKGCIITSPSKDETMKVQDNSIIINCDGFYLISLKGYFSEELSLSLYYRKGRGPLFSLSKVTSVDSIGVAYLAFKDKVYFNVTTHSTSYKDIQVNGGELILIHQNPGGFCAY
Assay: cell-based or functional assay
measured endpoint: % Signal Inhibition Rep2 (%)
Please respond with the number in % and leave the unit unwritten.

binder	readout units	% Signal Inhibition Rep2
PMX154 (antibody, V domains shown) VH: EVQLVESGGDLVKPEGSLRLSCVVSGFTFSGFDMSWVRQAPGKGLQWVAYISTDGRSTGYTDAVKGRFTISRDNVKNTLYLQMNSLRTEDTAVYYCAKETRHWGFDYWGQGTLVIVSS VL: SYVLTQLSSVSVSLRQTAHITCGGDSIGRKNVYWHQQKLGRAPILIIYDDSSRPSGIPERFSGANSGNTATLTISGALAEDEAAYYCQVWDSSTSVFGGGTHLTVL	%	77.2

IN: Please supply the value of reported % Signal Inhibition Rep2 for the item PMX035 (antibody, V domains shown, also called PMX35) VH: EVQLVESGGDLVKPGGSLRLSCVASGFTFSNFEMYWVRQAPGKGLEWVARIYKSGSTTYHSERVKGRFTISKDSATNMAFLQMNSLRAEDTAVYYCTSASSTGWRFDYWGQGTLVTVSS VL: SYVLTQLPSVSVTLRQTARITCGGDSIGRKNVCWFQQKLGQAPVLIIYDDNSRPSGIPERFSGANSGNTATLTISGALAEDEADYYCQVWDSSTGIFGGGTHLTVL
OUT: 67.4
